Tested on: Porcine Ventricle myofibrils (left ventricle of Yucatan minipigs) (Sus scrofa, UniProt P79293)
Construct: Myofibrils from porcine cardiac muscle was isolated from the left ventricle of Yucatan minipigs; tissue Exemplar Genetics; host or cells: left ventricle of Yucatan minipigs
Sequence (P79293 whole entry): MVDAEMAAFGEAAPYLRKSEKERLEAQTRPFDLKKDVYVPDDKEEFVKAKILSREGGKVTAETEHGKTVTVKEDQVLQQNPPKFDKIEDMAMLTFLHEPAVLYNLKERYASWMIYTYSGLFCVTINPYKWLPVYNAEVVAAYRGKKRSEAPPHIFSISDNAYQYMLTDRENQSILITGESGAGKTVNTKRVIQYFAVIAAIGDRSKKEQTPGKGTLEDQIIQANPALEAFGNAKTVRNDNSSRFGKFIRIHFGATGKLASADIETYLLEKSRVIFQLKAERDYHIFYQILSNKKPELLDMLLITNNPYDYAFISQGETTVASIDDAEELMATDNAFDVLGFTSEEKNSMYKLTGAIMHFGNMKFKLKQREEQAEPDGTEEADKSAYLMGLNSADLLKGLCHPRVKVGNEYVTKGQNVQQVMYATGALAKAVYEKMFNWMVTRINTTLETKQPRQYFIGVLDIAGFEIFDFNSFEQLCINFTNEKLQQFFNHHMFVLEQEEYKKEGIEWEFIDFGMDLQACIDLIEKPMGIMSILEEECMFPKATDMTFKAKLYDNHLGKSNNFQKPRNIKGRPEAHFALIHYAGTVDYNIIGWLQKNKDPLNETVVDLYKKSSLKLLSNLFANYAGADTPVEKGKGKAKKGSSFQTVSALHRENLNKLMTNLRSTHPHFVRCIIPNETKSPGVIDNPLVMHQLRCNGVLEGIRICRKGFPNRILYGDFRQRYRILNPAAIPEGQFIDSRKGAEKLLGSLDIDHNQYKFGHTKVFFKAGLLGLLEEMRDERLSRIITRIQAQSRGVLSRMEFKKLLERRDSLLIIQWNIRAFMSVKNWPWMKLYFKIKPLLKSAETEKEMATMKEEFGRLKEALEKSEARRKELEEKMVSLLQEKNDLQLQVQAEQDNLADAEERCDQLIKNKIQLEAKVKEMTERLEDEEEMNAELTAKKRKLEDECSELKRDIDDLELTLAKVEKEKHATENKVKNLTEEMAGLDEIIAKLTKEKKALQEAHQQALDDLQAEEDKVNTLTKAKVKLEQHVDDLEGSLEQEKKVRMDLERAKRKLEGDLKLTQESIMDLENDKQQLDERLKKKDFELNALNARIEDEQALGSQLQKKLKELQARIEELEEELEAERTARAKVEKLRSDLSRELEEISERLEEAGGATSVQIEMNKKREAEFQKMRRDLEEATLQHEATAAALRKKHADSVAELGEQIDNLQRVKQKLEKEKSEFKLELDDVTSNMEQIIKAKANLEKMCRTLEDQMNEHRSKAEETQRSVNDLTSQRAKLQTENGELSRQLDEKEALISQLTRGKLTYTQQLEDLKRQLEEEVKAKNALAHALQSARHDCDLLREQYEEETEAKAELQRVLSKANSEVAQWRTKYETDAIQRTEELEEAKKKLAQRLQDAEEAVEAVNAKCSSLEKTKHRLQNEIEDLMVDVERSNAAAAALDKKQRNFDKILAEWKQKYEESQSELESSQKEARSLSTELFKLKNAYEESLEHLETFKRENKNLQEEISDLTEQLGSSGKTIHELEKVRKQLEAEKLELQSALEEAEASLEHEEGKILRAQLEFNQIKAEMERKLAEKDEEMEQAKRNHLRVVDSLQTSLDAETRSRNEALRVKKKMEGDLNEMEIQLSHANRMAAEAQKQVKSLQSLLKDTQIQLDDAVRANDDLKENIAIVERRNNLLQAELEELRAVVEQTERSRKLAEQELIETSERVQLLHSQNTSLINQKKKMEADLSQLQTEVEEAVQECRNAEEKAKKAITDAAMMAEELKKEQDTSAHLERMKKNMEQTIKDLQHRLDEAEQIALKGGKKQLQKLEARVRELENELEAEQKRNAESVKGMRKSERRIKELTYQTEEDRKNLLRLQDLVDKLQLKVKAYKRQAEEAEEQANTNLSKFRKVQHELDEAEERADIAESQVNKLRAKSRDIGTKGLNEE
Experiment: Myofibril ATPase assay (PK/LDH NADH-coupled), ventricle myofibrils
Format: biochemical
Reported conditions: Table 8
Note to self: class = bucket of Porcine Ventricle IC25, per low (below 0.5 µM), middle (0.5 µM to below 40 µM), high (40 µM or more)

compound=Cc1cccc2c1C1(CC1)N(CC(=O)N[C@H]1COc3cc(C#N)cnc31)C(=O)N2 category_label=middle
compound=[2H]C1([2H])c2c(ccc(F)c2F)NC(=O)N1CC(=O)N[C@H](C)c1ncc(C#N)cc1F category_label=middle
compound=Cc1cc(C#N)nnc1[C@@H](C)NC(=O)CN1Cc2c(ccc(F)c2F)NC1=O category_label=middle
compound=C[C@H](NC(=O)[C@H](Cc1ccccc1)N1Cc2cc(F)ccc2NC1=O)c1ccc(F)cc1F category_label=high
compound=C[C@@H](NC(=O)CN1Cc2c(ccc(F)c2F)NC1=O)c1cc2c(cn1)OCCN2C category_label=middle
compound=C[C@@H](NC(=O)CN1Cc2c(ccc(F)c2F)NC1=O)c1cc2ccccc2cn1 category_label=low
compound=C[C@@H](NC(=O)CN1Cc2c(C#N)cccc2NC1=O)c1ccc(C#N)cn1 category_label=high
compound=C[C@H](NC(=O)[C@H](C)N1Cc2c(Br)cccc2NC1=O)c1ccc(F)cc1F category_label=low
compound=C[C@H](NC(=O)CN1Cc2cc(F)ccc2NC1=O)c1ccc(F)cc1F category_label=low
compound=Cc1cc([C@@H](C)NC(=O)CN2Cc3c(ccc(F)c3F)NC2=O)ncc1C#N category_label=middle
compound="Cc1nc([C@@H](C)NC(=O)CN2Cc3c(ccc(F)c3F)NC2=O)ncc1C#N (single isomer, unassigned)" category_label=middle
compound=C[C@@H](NC(=O)CN1Cc2cc(F)ccc2NC1=O)c1ncc(C#N)cc1F category_label=high
compound=N#Cc1cc(F)c2c(c1)OC[C@H]2NC(=O)CN1C(=O)Nc2cccc(C#N)c2C12CC2 category_label=low
compound=C[C@H](NC(=O)CN1Cc2c(ccc(F)c2F)NC1=O)c1ncc(Cl)cc1F category_label=low
compound=Cc1nc(C#N)ncc1[C@@H](C)NC(=O)CN1C(=O)Nc2ccc(F)cc2C12CC2 category_label=low
compound=C[C@@H](C(=O)N[C@@H](CO)c1ncc(F)cc1F)N1Cc2c(Cl)cccc2NC1=O category_label=middle
compound=CC(=O)N1CC2(C1)c1cc(F)ccc1NC(=O)N2CC(=O)N[C@H](C)c1ncc(C#N)cc1F category_label=high
compound=O=C(CN1Cc2cc(F)ccc2NC1=O)N[C@@H](CO)c1ccc(F)cc1F category_label=high
compound="CC1c2ccccc2NC(=O)N1CC(=O)N[C@@H](CO)c1ccc(F)cc1F (single isomer, unassigned)" category_label=high
compound=C[C@H](NC(=O)CN1Cc2c(ccc(F)c2F)NC1=O)c1cnc(C#N)cn1 category_label=low
compound=Cc1nc(C#N)cnc1[C@H](C)NC(=O)CN1C(=O)Nc2ccc(F)cc2C12CC2 category_label=high
compound=C[C@H](NC(=O)CN1C(=O)Nc2ccccc2C12CCCCC2)c1ccc(F)cc1F category_label=high
compound=C[C@@H](NC(=O)CN1Cc2c(ccc(F)c2F)NC1=O)c1ncc(Br)cc1F category_label=middle
compound="CC(NC(=O)CN1Cc2cc(F)ccc2NC1=O)c1ccc(C#N)cc1F (single isomer, unassigned) [Compound B206]" category_label=low
compound=C[C@@H](NC(=O)CN1C(=O)Nc2ccc(C#N)cc2C12CC2)c1ncc(F)cc1F category_label=high
compound=C[C@@H](NC(=O)CN1Cc2c(ccc(F)c2F)NC1=O)c1ccc(C#N)cc1F category_label=middle
compound=C[C@H](NC(=O)CN1Cc2cc(F)ccc2NC1=O)c1ncccn1 category_label=high
compound="CC(C(=O)N[C@@H](C)c1ccc(F)cc1F)N1Cc2ccccc2NC1=O (some centres unmarked)" category_label=middle
compound=C[C@H](NC(=O)[C@@H](C)N1Cc2c(ccc(F)c2F)NC1=O)c1ccc(F)cc1F category_label=low
compound=O=C(CN1Cc2c(ccc(F)c2F)NC1=O)N[C@@H](CO)c1ncc(F)cc1F category_label=low
compound=Cc1cccc2c1C1(CC1)N(CC(=O)N[C@@H](C)c1ncc(C#N)nc1C)C(=O)N2 category_label=middle
